src = ChEMBL document CHEMBL4699579

test: Binding affinity to GST-tagged Calcineurin (unknown origin) incubated for 1 hr by fluorescence polarization assay; parameters: species or system Homo sapiens
Non-standard residues stand in square brackets, D forms with d. Residues, ends and D or L forms follow the SMILES beside them. *: point of attachment. X5 = O=C(O)c1cc(NC(=S)*)ccc1-c1c2ccc(=O)cc-2oc2cc(O)ccc12; Benzoyl(2,3-Cl2) = O=C(c1cccc(Cl)c1Cl)*; Tle = CC(C)(C)[C@H](N)C(=O)O; X6 = Cc1ccc(C(=O)*)c(F)c1F; AEEA = NCCOCCOCC(=O)O; βAla = NCCC(=O)O
assay endpoint: pKd
// pKd is dimensionless: -log10 of concentration (M)

{"compound": "CC[C@H](C)[C@H](NC(=O)[C@@H](NC(=O)c1ccc(C)c(F)c1F)C(C)(C)C)C(=O)N[C@H](C(=O)N[C@H](C(=O)N[C@H](C(=O)NCC(=O)N1CCC[C@H]1C(=O)N[C@@H](Cc1c[nH]cn1)C(=O)N[C@@H](CCC(=O)O)C(=O)N[C@@H](CCC(=O)O)C(=O)N[C@@H](Cc1ccc(O)cc1)C(=O)N[C@@H](CCCCNC(=S)Nc1ccc(-c2c3ccc(=O)cc-3oc3cc(O)ccc23)c(C(=O)O)c1)C(N)=O)[C@@H](C)O)[C@@H](C)CC)C(C)(C)C (X6-[Tle]I[Tle]ITGPHEEYK(X5)-NH2)", "reading": 7.13}
{"compound": "CC[C@H](C)[C@H](NC(=O)[C@@H](NC(=O)c1cccc(Cl)c1Cl)C(C)(C)C)C(=O)N[C@H](C(=O)N[C@H](C(=O)N[C@H](C(=O)NCCOCCOCC(=O)N[C@@H](CCCCNC(=S)Nc1ccc(-c2c3ccc(=O)cc-3oc3cc(O)ccc23)c(C(=O)O)c1)C(N)=O)[C@@H](C)O)[C@@H](C)CC)C(C)(C)C ({Benzoyl(2,3-Cl2)}-[Tle]I[Tle]IT[AEEA]K(X5)-NH2)", "reading": 6.15}
{"compound": "CC[C@H](C)[C@H](NC(=O)[C@@H](NC(=O)c1cccc(Cl)c1Cl)C(C)(C)C)C(=O)N[C@H](C(=O)N[C@H](C(=O)N[C@H](C(=O)N[C@@H](CC(=O)O)C(=O)N[C@@H](CCC(N)=O)C(=O)N[C@@H](Cc1ccc(O)cc1)C(=O)N[C@@H](CCCNC(=N)N)C(=O)NCCC(=O)N[C@@H](CCCCNC(=S)Nc1ccc(-c2c3ccc(=O)cc-3oc3cc(O)ccc23)c(C(=O)O)c1)C(N)=O)[C@@H](C)O)[C@@H](C)CC)C(C)(C)C ({Benzoyl(2,3-Cl2)}-[Tle]I[Tle]ITDQYR[βAla]K(X5)-NH2)", "reading": 7.19}
{"compound": "CC[C@H](C)[C@H](NC(=O)[C@@H](NC(=O)c1cccc(Cl)c1Cl)C(C)(C)C)C(=O)N[C@H](C(=O)N[C@H](C(=O)N[C@H](C(=O)N[C@@H](CCC(N)=O)C(=O)N[C@@H](Cc1c[nH]cn1)C(=O)N[C@H](CC(C)C)C(=O)N[C@@H](Cc1c[nH]cn1)C(=O)NCCC(=O)N[C@@H](CCCCNC(=S)Nc1ccc(-c2c3ccc(=O)cc-3oc3cc(O)ccc23)c(C(=O)O)c1)C(N)=O)[C@@H](C)O)[C@@H](C)CC)C(C)(C)C", "reading": 8.33}

Item CC[C@H](C)[C@H](NC(=O)[C@@H](NC(=O)c1cccc(Cl)c1Cl)C(C)(C)C)C(=O)N[C@H](C(=O)N[C@H](C(=O)N[C@H](C(=O)NCC(=O)N1CCC[C@H]1C(=O)N[C@@H](Cc1c[nH]cn1)C(=O)N[C@@H](CCC(=O)O)C(=O)N[C@@H](CCC(=O)O)C(=O)N[C@@H](Cc1ccc(O)cc1)C(=O)N[C@@H](CCCCNC(=S)Nc1ccc(-c2c3ccc(=O)cc-3oc3cc(O)ccc23)c(C(=O)O)c1)C(N)=O)[C@@H](C)O)[C@@H](C)CC)C(C)(C)C ({Benzoyl(2,3-Cl2)}-[Tle]I[Tle]ITGPHEEYK(X5)-NH2) has what recorded pKd? 7.39

---

This listing pairs compounds with measured pKd.
assay: Binding affinity to GST-tagged Calcineurin (unknown origin) incubated for 1 hr by fluorescence polarization assay; set-up: species or system Homo sapiens
Non-standard residues stand in square brackets, D forms with d. Residues, ends and D or L forms follow the SMILES beside them. *: point of attachment. X5 = O=C(O)c1cc(NC(=S)*)ccc1-c1c2ccc(=O)cc-2oc2cc(O)ccc12; Cyclohexanecarbonyl = O=C(C1CCCCC1)*; Tle = CC(C)(C)[C@H](N)C(=O)O; Bz = O=C(c1ccccc1)*
Just so you know, pKd here is -log10 of the concentration in molar units; reply with that number alone.

{"compound": "CC[C@H](C)[C@H](NC(=O)[C@@H](NC(=O)C1CCCCC1)C(C)(C)C)C(=O)N[C@H](C(=O)N[C@H](C(=O)N[C@H](C(=O)NCC(=O)N1CCC[C@H]1C(=O)N[C@@H](Cc1c[nH]cn1)C(=O)N[C@@H](CCC(=O)O)C(=O)N[C@@H](CCC(=O)O)C(=O)N[C@@H](Cc1ccc(O)cc1)C(=O)N[C@@H](CCCCNC(=S)Nc1ccc(-c2c3ccc(=O)cc-3oc3cc(O)ccc23)c(C(=O)O)c1)C(N)=O)[C@@H](C)O)[C@@H](C)CC)C(C)(C)C (Cyclohexanecarbonyl-[Tle]I[Tle]ITGPHEEYK(X5)-NH2)", "pKd": 6.68}

# context switch: different compound, same pKd
Which pKd is listed for CC[C@H](C)[C@H](NC(=O)[C@@H](NC(=O)c1ccccc1)C(C)(C)C)C(=O)N[C@H](C(=O)N[C@H](C(=O)N[C@H](C(=O)NCC(=O)N1CCC[C@H]1C(=O)N[C@@H](Cc1c[nH]cn1)C(=O)N[C@@H](CCC(=O)O)C(=O)N[C@@H](CCC(=O)O)C(=O)N[C@@H](Cc1ccc(O)cc1)C(=O)N[C@@H](CCCCNC(=S)Nc1ccc(-c2c3ccc(=O)cc-3oc3cc(O)ccc23)c(C(=O)O)c1)C(N)=O)[C@@H](C)O)[C@@H](C)CC)C(C)(C)C (Bz-[Tle]I[Tle]ITGPHEEYK(X5)-NH2) ? 6.65

---

Reported values of pKd for individual entries
experiment: Binding affinity to GST-tagged Calcineurin (unknown origin) incubated for 1 hr by fluorescence polarization assay; parameters: species or system Homo sapiens
Non-standard residues stand in square brackets, D forms with d. Residues, ends and D or L forms follow the SMILES beside them. *: point of attachment. X5 = O=C(O)c1cc(NC(=S)*)ccc1-c1c2ccc(=O)cc-2oc2cc(O)ccc12; Benzoyl(2,3,4,5,6-F5) = O=C(c1c(F)c(F)c(F)c(F)c1F)*; X7 = O=C(c1cc(F)c(F)c(F)c1F)*; Tle = CC(C)(C)[C@H](N)C(=O)O
# pKd: negative log10 of molar concentration; output just the value

# annotated cases, reported pKd shown
{"molecule": "CC[C@H](C)[C@H](NC(=O)[C@@H](NC(=O)c1cccc(Cl)c1Cl)C(C)(C)C)C(=O)N[C@H](C(=O)N[C@H](C(=O)N[C@H](C(=O)N[C@@H](Cc1ccc(O)cc1)C(=O)N[C@H](CCC(=O)O)C(=O)N[C@@H](Cc1ccc(F)cc1)C(=O)N[C@@H](Cc1c[nH]cn1)C(=O)NCCC(=O)N[C@@H](CCCCNC(=S)Nc1ccc(-c2c3ccc(=O)cc-3oc3cc(O)ccc23)c(C(=O)O)c1)C(N)=O)[C@@H](C)O)[C@@H](C)CC)C(C)(C)C", "pKd": 7.92}
{"molecule": "CC[C@H](C)[C@H](NC(=O)[C@@H](NC(=O)c1cccc(Cl)c1Cl)C(C)(C)C)C(=O)N[C@H](C(=O)N[C@H](C(=O)N[C@H](C(=O)N[C@@H](CC(=O)O)C(=O)N[C@@H](CCC(N)=O)C(=O)N[C@@H](Cc1ccc(O)cc1)C(=O)N[C@H](CCCCN)C(=O)NCCC(=O)N[C@@H](CCCCNC(=S)Nc1ccc(-c2c3ccc(=O)cc-3oc3cc(O)ccc23)c(C(=O)O)c1)C(N)=O)[C@@H](C)O)[C@@H](C)CC)C(C)(C)C", "pKd": 7.66}
{"molecule": "CC[C@H](C)[C@H](NC(=O)[C@@H](NC(=O)c1c(F)c(F)c(F)c(F)c1F)C(C)(C)C)C(=O)N[C@H](C(=O)N[C@H](C(=O)N[C@H](C(=O)NCC(=O)N1CCC[C@H]1C(=O)N[C@@H](Cc1c[nH]cn1)C(=O)N[C@@H](CCC(=O)O)C(=O)N[C@@H](CCC(=O)O)C(=O)N[C@@H](Cc1ccc(O)cc1)C(=O)N[C@@H](CCCCNC(=S)Nc1ccc(-c2c3ccc(=O)cc-3oc3cc(O)ccc23)c(C(=O)O)c1)C(N)=O)[C@@H](C)O)[C@@H](C)CC)C(C)(C)C ({Benzoyl(2,3,4,5,6-F5)}-[Tle]I[Tle]ITGPHEEYK(X5)-NH2)", "pKd": 7.11}

So what's the measured pKd for this one? CC[C@H](C)[C@H](NC(=O)[C@@H](NC(=O)c1cc(F)c(F)c(F)c1F)C(C)(C)C)C(=O)N[C@H](C(=O)N[C@H](C(=O)N[C@H](C(=O)NCC(=O)N1CCC[C@H]1C(=O)N[C@@H](Cc1c[nH]cn1)C(=O)N[C@@H](CCC(=O)O)C(=O)N[C@@H](CCC(=O)O)C(=O)N[C@@H](Cc1ccc(O)cc1)C(=O)N[C@@H](CCCCNC(=S)Nc1ccc(-c2c3ccc(=O)cc-3oc3cc(O)ccc23)c(C(=O)O)c1)C(N)=O)[C@@H](C)O)[C@@H](C)CC)C(C)(C)C (X7-[Tle]I[Tle]ITGPHEEYK(X5)-NH2) 7.49
